Molecular target: Glucocorticoid receptor (Homo sapiens) (UniProt P04150)
Sequence (P04150 whole entry, looked up): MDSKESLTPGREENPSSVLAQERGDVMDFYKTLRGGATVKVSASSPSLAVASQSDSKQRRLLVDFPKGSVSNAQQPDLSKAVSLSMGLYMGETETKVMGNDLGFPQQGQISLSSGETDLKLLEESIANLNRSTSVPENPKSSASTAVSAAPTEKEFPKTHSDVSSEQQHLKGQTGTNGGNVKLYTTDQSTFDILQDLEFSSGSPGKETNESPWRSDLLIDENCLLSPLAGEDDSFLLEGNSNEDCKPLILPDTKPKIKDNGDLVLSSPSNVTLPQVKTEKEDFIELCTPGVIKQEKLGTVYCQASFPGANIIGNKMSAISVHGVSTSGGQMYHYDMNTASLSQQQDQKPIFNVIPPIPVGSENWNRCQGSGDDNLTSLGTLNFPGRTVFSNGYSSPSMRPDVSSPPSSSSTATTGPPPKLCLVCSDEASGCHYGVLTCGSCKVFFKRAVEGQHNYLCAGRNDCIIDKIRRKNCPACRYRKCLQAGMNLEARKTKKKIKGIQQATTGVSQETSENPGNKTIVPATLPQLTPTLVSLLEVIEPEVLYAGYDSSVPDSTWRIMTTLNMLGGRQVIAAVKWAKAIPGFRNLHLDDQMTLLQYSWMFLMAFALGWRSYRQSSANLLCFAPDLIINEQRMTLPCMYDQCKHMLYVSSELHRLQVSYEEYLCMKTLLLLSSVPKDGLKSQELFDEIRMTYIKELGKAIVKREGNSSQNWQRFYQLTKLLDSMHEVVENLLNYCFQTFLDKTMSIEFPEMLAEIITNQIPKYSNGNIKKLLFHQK
Experiment: GR-GFP Redistribution (AID 450); further: potency means the concentration at half of the fitted maximal effect
Conditions: U2OS GR-GFP nuclear translocation, laser cytometry, 2 h
Method: NIH Molecular Libraries Screening Centers Network [MLSCN] NIH Chemical Genomics Center [NCGC] […] GR-GFP U2OS cells were maintained in DMEM with Glutamax and high glucose, 1% v/v penicillin-streptomycin, and 0.5 mg/mL Geneticin. […] The plates were read by the Acumen Explorer using a 1 x 8 um scan of the whole well area. PI fluorescence triggered the collection of PI and GFP signals. […]
The source made the active and inactive calls.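 How the source made its calls: active means compounds whose dose series gives a full or clear partial fitted curve of increased nuclear translocation; inconclusive means weak partial curve or effect only at the top dose; inactive means no dose-dependent translocation response.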
Some compounds, each annotated with its measured Potency.
RECORDED_ENDPOINT: Potency

{"columns": ["COMPOUND", "RESULT"],
 "data": [
  ["Cc1cc2c(cc1S(N)(=O)=O)S(=O)(=O)CCC2", "> 20.6 µM (inactive)"],
  ["Nc1ncnc2c1ncn2[C@@H]1O[C@H](CO)[C@@H](O)[C@H]1O", "> 20.6 µM (inactive)"],
  ["Cc1c(Cl)cccc1Nc1ccccc1C(=O)O", "> 20.6 µM (inactive)"],
  ["CCC(=O)c1ccc(O)cc1", "> 20.6 µM (inactive)"],
  ["CN(C)CCN(Cc1ccccc1)c1ccccn1", "> 20.6 µM (inactive)"],
  ["CCCn1cnc2c1c(=O)n(CCCCC(C)=O)c(=O)n2C", "> 46 µM (inactive)"],
  ["COc1ccc2c(c1)C(=O)N(CCc1ccc(S(=O)(=O)NC(=O)NC3CCCCC3)cc1)C(=O)C2(C)C", "> 20.6 µM (inactive)"],
  ["O=c1cc(CO)occ1O", "> 46 µM (inactive)"],
  ["Nc1ccc(S(=O)(=O)Nc2nccs2)cc1", "> 20.6 µM (inactive)"],
  ["OCC(O)CN1CCN(c2ccccc2)CC1 (configuration not stated)", "> 20.6 µM (inactive)"],
  ["C[C@H](N)[C@H](O)c1cccc(O)c1", "> 20.6 µM (inactive)"],
  ["Cc1ncc([N+](=O)[O-])n1CC(O)CCl (configuration not stated)", "> 20.6 µM (inactive)"],
  ["CCCCOc1cc(C(=O)OCCN(CC)CC)ccc1N", "> 20.6 µM (inactive)"],
  ["CC[C@H]1CN2CCc3cc(OC)c(OC)cc3[C@@H]2C[C@@H]1C[C@H]1NCCc2cc(OC)c(OC)cc21", "> 20.6 µM (inactive)"],
  ["CCCCOC(=O)c1ccc(O)cc1", "> 20.6 µM (inactive)"],
  ["Cc1cccc(Nc2cc(Cl)nc(SCC(=O)O)n2)c1C", "> 46 µM (inactive)"],
  ["CC(COc1ccccc1)NC(C)C(O)c1ccc(O)cc1 (configuration not stated)", "> 20.6 µM (inactive)"]
]}

----------
Tested on: Tov112D
Assay: Primary qHTS to identify gynecologic anti-cancer compounds using libraries of approved drugs and bioactive compounds (AID 1345084); further: nearly all actives have a fitted effect of over 55% in size
Details: Gynecologic cancer cell panel viability, ATPlite luminescence, 48 h; series mostly up to 57.5 µM
Inconclusive results are not listed. Active and inactive are the calls of the source. Calls come from the whole dose curve; as a rule, active = well fitted cell-killing curve with a large enough effect; inconclusive = small, poorly fitted or top-dose-only effect, or effect the other way; inactive = flat fitted curve, though single readings scatter.
RECORDED_ENDPOINT: activity change, negative = cytotoxicity

{"columns": ["COMPOUND", "RECORDED_ENDPOINT", "RESULT"],
 "data": [
  ["Cc1cccc(C)c1NC(=O)CN(CC(=O)O)CC(=O)O", "activity change, negative = cytotoxicity", "inactive"],
  ["CC(C)(C)C(=O)C(Oc1ccc(Cl)cc1)n1ccnc1 (stereo unspecified)", "activity change, negative = cytotoxicity", "inactive"],
  ["COc1ccc2cc1Oc1ccc(cc1)C[C@H]1c3c(cc4c(c3Oc3cc5c(cc3OC)CCN(C)[C@@H]5C2)OCO4)CCN1C", "activity change, negative = cytotoxicity", "inactive"],
  ["C=CCn1c(=O)n([C@@H]2O[C@H](CO)[C@@H](O)[C@H]2O)c2nc(N)[nH]c(=O)c21", "activity change, negative = cytotoxicity", "inactive"],
  ["OCC(O)CN1CCN(c2ccccc2)CC1 (stereo unspecified)", "activity change, negative = cytotoxicity", "inactive"],
  ["COc1cc2[nH]c(=O)[nH]c(=O)c2cc1OC", "activity change, negative = cytotoxicity", "inactive"],
  ["NC1[C@H]2CN(c3nc4c(cc3F)c(=O)c(C(=O)O)cn4-c3ccc(F)cc3F)C[C@@H]12 (stereo partly specified)", "activity change, negative = cytotoxicity", "inactive"],
  ["O=C(O)CN1C(=O)c2cccc3cccc(c23)C1=O", "activity change, negative = cytotoxicity", "inactive"],
  ["OCc1cc(C(O)CNCCCCCCOCCCCc2ccccc2)ccc1O (stereo unspecified)", "activity change, negative = cytotoxicity", "inactive"],
  ["NC(CSCC(=O)O)C(=O)O (stereo unspecified)", "activity change, negative = cytotoxicity", "inactive"],
  ["NS(=O)(=O)c1cc2c(cc1Cl)NC(CSCc1ccccc1)=NS2(=O)=O", "activity change, negative = cytotoxicity", "inactive"]
]}
